selectivity ratio values by entry
# assayMethodText: Selectivity index, ratio of IC50 for mouse J774 cells to IC50 for Trypanosoma cruzi Tulahuen 2 epimastigotes
# Assay type: toxicity
# particulars: J774 cells versus Trypanosoma cruzi Tulahuen 2 epimastigotes, read-out: Ratio IC50

// below: answered molecules
NC1=NS(=O)(=O)Nc2nc(C3CCCCC3)[nH]c21 : > 25
NC1=NS(=O)(=O)Nc2nc(Cc3ccccc3)[nH]c21 : > 31
NC1=NS(=O)(=O)N(Cc2ccc(Cl)cc2)c2nc(-c3ccccc3F)[nH]c21 : < 14.2

Then this molecule:
Q) Please report the recorded selectivity ratio for `NC1=NS(=O)(=O)Nc2nc(CCc3ccccc3)[nH]c21` .
A) > 34.8
